For each entry below, report its IC50 value.
target-or-system: IRAK4 (Homo sapiens (Human))
Sequence (Q9NWZ3 whole entry): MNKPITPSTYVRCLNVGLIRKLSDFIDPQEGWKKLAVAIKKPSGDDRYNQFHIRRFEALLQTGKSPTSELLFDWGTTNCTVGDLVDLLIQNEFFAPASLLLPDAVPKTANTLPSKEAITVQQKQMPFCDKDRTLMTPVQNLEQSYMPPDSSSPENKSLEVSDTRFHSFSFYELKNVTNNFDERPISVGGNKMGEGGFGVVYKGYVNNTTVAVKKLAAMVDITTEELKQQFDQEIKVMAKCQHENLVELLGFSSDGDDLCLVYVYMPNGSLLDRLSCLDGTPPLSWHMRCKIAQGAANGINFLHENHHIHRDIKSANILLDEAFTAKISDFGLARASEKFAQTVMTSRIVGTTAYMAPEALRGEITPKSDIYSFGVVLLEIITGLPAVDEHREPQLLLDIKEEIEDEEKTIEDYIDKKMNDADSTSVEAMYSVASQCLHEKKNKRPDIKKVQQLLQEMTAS
run-description: IRAK4 Kinase Assay
Assay type: biochemical
condition-notes: IMAP fluorescence polarization, 0.5 nM GST tagged IRAK4, 100 μM ATP, 30 minutes at 25° C.; read-out: IRAK4 IC50
Structures can show the parent of a compound that is named as a salt.
Use nM as the unit, but write only the number.

Entry under review: Cn1cc(NC(=O)c2cnn3ccc(N[C@H]4CNCC(F)(F)C4)nc23)c(C(F)F)n1 (single isomer, unassigned) . Reported IC50?
0.7

Can you check N#Cc1ccccc1NC(=O)c1cnn2ccc(N[C@@H]3CCCNC3)nc12 [Example 270, trifluoroacetate] next?
10

Try the compound Cn1cc(NC(=O)c2cnn3ccc(N[C@@H]4CCCCNC4)nc23)c(C(F)(F)F)n1 (single isomer, unassigned) [Example 160, trifluoroacetate]
0.5

Same lookup for Cn1cc(NC(=O)c2cnn3ccc(N[C@H]4CNC[C@@H](F)C4)nc23)c(C(F)F)n1 [Example 258, hydrochloride] , please.
0.5

Subsequent entry: O=C(Nc1ccccc1C(F)F)c1cnn2ccc(N3CCCNCC3)nc12
8810

How about Cn1cc(NC(=O)c2cnn3ccc(N4C[C@H]5CC[C@@H]4CN5)nc23)c(C(F)(F)F)n1 (single isomer, unassigned) ?
19

Field entry: N[C@H]1CCCC[C@H]1Nc1ccn2ncc(C(=O)Nc3ccncc3C(F)(F)F)c2n1 [Example 31, formate]
4

What about this compound? N[C@H]1CCCC[C@H]1Nc1ccn2ncc(C(=O)Nc3ccccc3C(F)F)c2n1
8

Same question, Cn1cc(NC(=O)c2cnn3ccc(N4CC5CC4CCN5)nc23)c(C(F)(F)F)n1 (stereo not drawn) [Example 74, trifluoroacetate] this time
41

Same for Cn1cc(NC(=O)c2cnn3ccc(N[C@@H]4CNCC(F)(F)C4)nc23)c(C(F)(F)F)n1 (single isomer, unassigned)
685

Proceed to N[C@@H]1[C@H](Nc2ccn3ncc(C(=O)Nc4cscc4Br)c3n2)CCCC1(F)F [Example 122, trifluoroacetate]
1140

Next compound up: CN1CCN(c2ccn3ncc(C(=O)Nc4cn(C)nc4C(F)(F)F)c3n2)C(C)(C)C1 [Example 35, trifluoroacetate]
589

Ok, now Cn1cc(NC(=O)c2cnn3ccc(N[C@@H]4CNCC(F)(F)C4)nc23)c(C(F)F)n1 (single isomer, unassigned)
59

Query Cn1cc(NC(=O)c2cnn3ccc(N4CCNC(C(F)(F)F)C4)nc23)c(C(F)(F)F)n1 (stereo not drawn) next
113

Same for CC(C)n1cc(NC(=O)c2cnn3ccc(N4CC5CCC4CN5)nc23)c(C(F)(F)F)n1 (stereo not drawn)
48

Try Cn1cc(NC(=O)c2cnn3ccc(N4C[C@H]5CNC[C@@H]4C5)nc23)c(C(F)(F)F)n1 (single isomer, unassigned) next.
158

Now try Cn1cc(NC(=O)c2cnn3ccc(N4CCC[C@@H](O)C4)nc23)c(C(F)F)n1 .
0.5

Another compound to check: O=C(Nc1ccccc1Br)c1cnn2ccc(N3CCCNCC3)nc12 [Example 109, trifluoroacetate]
3360

Cn1cc(NC(=O)c2cnn3ccc(N4CC5CNC(C5)C4)nc23)c(C(F)(F)F)n1 (stereo not drawn) [Example 223, trifluoroacetate] ?
57

And the next one, CC(C)(C)n1cc(NC(=O)c2cnn3ccc(N[C@@H]4CCCC[C@@H]4O)nc23)c(C(F)(F)F)n1 ?
259

Then what about the compound Cn1cc(NC(=O)c2cnn3ccc(N[C@@H]4CCCC(F)(F)[C@@H]4N)nc23)c(Cl)n1 ?
109

Another: O=C(Nc1cn(CC(F)(F)F)nc1C(F)(F)F)c1cnn2ccc(N3CC4CCC3CN4)nc12 (stereo not drawn) [Example 58, trifluoroacetate]
267

Input CC(C)n1cc(NC(=O)c2cnn3ccc(N[C@@H]4CCCC(F)(F)[C@@H]4N)nc23)c(C(F)F)n1 [Example 200, trifluoroacetate]
36

Further, for Cn1cc(NC(=O)c2cnn3ccc(N4CC[C@@H](F)[C@@H](N)C4)nc23)c(C(F)F)n1 (single isomer, unassigned) [Example 178, trifluoroacetate] ?
4

Subsequent entry: CC(C)n1cc(NC(=O)c2cnn3ccc(N4CCNCC5(CC5)C4)nc23)c(C(F)(F)F)n1
32

Here is the next compound: Cn1cc(NC(=O)c2cnn3ccc(N4C[C@@H]5CC[C@H]4CN5)nc23)c(Br)n1 (single isomer, unassigned) [Example 164, trifluoroacetate]
50

Cool, now Cn1cc(NC(=O)c2cnn3ccc(N4CC[C@@H]5CC[C@H](C4)N5)nc23)c(C(F)(F)F)n1 (single isomer, unassigned) [Example 94, trifluoroacetate]
70
